Non-standard residues stand in square brackets, D forms with d. Residues, ends and D or L forms follow the SMILES beside them. *: point of attachment. d2Nal = N[C@H](Cc1ccc2ccccc2c1)C(=O)O; Benzoyl(4-F) = O=C(c1ccc(F)cc1)*; Aib = CC(C)(N)C(=O)O; Inp = O=C(O)C1CCNCC1
Recorded pIC50 values (UniProt:Q92847) are given below.
For clarity, pIC50 is expressed as the negative log10 of concentration in mol/L.

The examples below pair each entry with its known result.
NC(=O)[C@H](CCCCNC(=O)c1ccc(F)cc1)NC(=O)[C@@H](Cc1ccc2ccccc2c1)NC(=O)[C@@H](Cc1ccc2ccccc2c1)NC(=O)[C@H](Cc1c[nH]cn1)NC(=O)C1CCNCC1 [MMF-01-140-H, H-Inp-His-D-2-Nal-D-2-Nal-Lys(4-FB)-NH2] (H-[Inp]H[d2Nal][d2Nal]K(Benzoyl(4-F))-NH2) | 5.72
CC(C)(N)C(=O)N[C@@H](Cc1c[nH]cn1)C(=O)N[C@H](Cc1ccc2ccccc2c1)C(=O)N[C@H](Cc1ccccc1)C(=O)N[C@@H](CCCCN)C(N)=O [Ipamorelin, H-Aib-His-D-2-Nal-D-Phe-Lys-NH2, reference compound] (H-[Aib]H[d2Nal][dF]K-NH2) | 6.32

Look up pIC50 for this molecule: C[C@H](NC(=O)[C@@H](Cc1ccc2ccccc2c1)NC(=O)[C@@H](C)N)C(=O)N[C@@H](Cc1c[nH]c2ccccc12)C(=O)N[C@H](Cc1ccccc1)C(=O)N[C@@H](CCCCN)C(N)=O [GHRP-2, H-D-Ala-D-2-Nal-Ala-Trp-D-Phe-Lys-NH2, reference compound] (H-[dA][d2Nal]AW[dF]K-NH2) 6.35

###

Target: GHS-R1a (Homo sapiens, UniProt Q92847)
Sequence (Q92847 whole entry): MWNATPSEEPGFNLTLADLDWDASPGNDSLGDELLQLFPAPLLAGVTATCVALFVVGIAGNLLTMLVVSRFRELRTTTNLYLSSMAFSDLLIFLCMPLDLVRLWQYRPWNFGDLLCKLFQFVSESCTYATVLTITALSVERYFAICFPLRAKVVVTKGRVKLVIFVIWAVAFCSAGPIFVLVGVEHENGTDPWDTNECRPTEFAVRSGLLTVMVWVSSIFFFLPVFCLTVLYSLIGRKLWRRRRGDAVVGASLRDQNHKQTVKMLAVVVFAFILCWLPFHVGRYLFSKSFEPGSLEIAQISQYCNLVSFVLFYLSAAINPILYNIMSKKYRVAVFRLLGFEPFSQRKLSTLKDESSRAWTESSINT
Non-standard residues stand in square brackets, D forms with d. Residues, ends and D or L forms follow the SMILES beside them. *: point of attachment. 1Nal = N[C@@H](Cc1cccc2ccccc12)C(=O)O; d2Nal = N[C@H](Cc1ccc2ccccc2c1)C(=O)O; Benzoyl(4-F) = O=C(c1ccc(F)cc1)*; d2Thi = N[C@H](Cc1cccs1)C(=O)O; Dap = NC[C@H](N)C(=O)O; Inp = O=C(O)C1CCNCC1
property-label: pIC50
Field pIC50 (float): negative decimal logarithm of the concentration in molar.

Answered cases to consult:
NC(=O)[C@H](CCCCNC(=O)c1ccc(F)cc1)NC(=O)[C@@H](Cc1cccs1)NC(=O)[C@@H](Cc1ccc2ccccc2c1)NC(=O)[C@H](Cc1c[nH]cn1)NC(=O)C1CCNCC1 [Inp-Thi-4-FB-Ipamorelin, H-Inp-His-D-2-Nal-D-2-Thi-Lys(4-FB)-NH2] (H-[Inp]H[d2Nal][d2Thi]K(Benzoyl(4-F))-NH2) | 5.93
C[C@H](NC(=O)[C@@H](Cc1c[nH]c2ccccc12)NC(=O)[C@@H](N)Cc1c[nH]cn1)C(=O)N[C@@H](Cc1c[nH]c2ccccc12)C(=O)N[C@H](Cc1ccccc1)C(=O)N[C@@H](CNC(=O)c1ccc(F)cc1)C(N)=O [Dpr-4-FB-GHRP-6, H-His-D-Trp-Ala-Trp-D-Phe-Dpr(4-FB)-NH2] (H-H[dW]AW[dF][Dap](Benzoyl(4-F))-NH2) | 5.97

Continue with the next compound.
Reported pIC50, compound NCCCC[C@H](NC(=O)[C@H](Cc1cccc2ccccc12)NC(=O)[C@@H](Cc1ccc2ccccc2c1)NC(=O)[C@@H](Cc1ccc2ccccc2c1)NC(=O)C1CCNCC1)C(N)=O [MMF-01-113-G, H-Inp-D-2-Nal-D-2-Nal-1-Nal-Lys-NH2] (H-[Inp][d2Nal][d2Nal][1Nal]K-NH2) : ____ 7.56
